Test system: PKC
Assay: Rates of phosphorylation of synthetic peptides by PKC
Assay type: biochemical, bovine
Conditions: PKC; AKRASAA taken as 100%
No end group written: not given here.
observation-type: 32P incorporated, %

For AKRPSAA (AKRPSAA-NH2) [synthetic peptide with an amide C-terminal group] , what is its reported 32P incorporated, %? 118%

Data request, read-out 32P incorporated, %, for KKRKSAA [model peptide patterned after the phosphorylation site of nucleocapsid protein NC] 370%

I am curious: what 32P incorporated, % value has been reported for RKKKSAA (RKKKSAA-NH2) [synthetic peptide with an amide C-terminal group] ? 94%

###

Test system: γ-PAK
Sequence (Q29502 249-500 limits assumed): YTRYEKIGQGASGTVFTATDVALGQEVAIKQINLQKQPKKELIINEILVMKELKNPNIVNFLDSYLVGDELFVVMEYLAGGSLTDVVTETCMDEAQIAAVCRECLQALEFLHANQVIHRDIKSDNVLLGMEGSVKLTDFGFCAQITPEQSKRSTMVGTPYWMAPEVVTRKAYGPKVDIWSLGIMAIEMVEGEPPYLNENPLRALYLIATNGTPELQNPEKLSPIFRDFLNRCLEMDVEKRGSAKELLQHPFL
Assay: Kinetic parameters (Km, Vmax) for phosphorylation of synthetic peptides by γ-PAK
Assay type: biochemical, rabbit
No end group written: not given here.
observation-type: overall rate of phosphorylation (Vmax/Km) compared to AKRASAA

# substance, assay-value
data = [
    ("AKRASEA (AKRASEA-NH2) [synthetic peptide with an amide C-terminal group]", "0.7 fold"),
    ("AKRGSAA (AKRGSAA-NH2) [synthetic peptide with an amide C-terminal group]", "slight overall decrease"),
    ("AKRESAA (AKRESAA-NH2) [synthetic peptide with an amide C-terminal group]", "~2.2 fold"),
    ("EKRASAA (EKRASAA-NH2) [synthetic peptide with an amide C-terminal group]", "1.3 fold"),
    ("AKRASGA (AKRASGA-NH2) [synthetic peptide with an amide C-terminal group]", "slight overall decrease"),
]

The record that follows has no overall rate of phosphorylation (Vmax/Km) compared to AKRASAA shown yet.
Any idea what its overall rate of phosphorylation (Vmax/Km) compared to AKRASAA is? The substance is PKRASAA (PKRASAA-NH2) [synthetic peptide with an amide C-terminal group] 2 fold

###

Biological target: PKA (Bos taurus)
Construct: the purified catalytic subunit of cAMP-dependent protein kinase from bovine heart was a gift; from tissue; host or cells: bovine heart (gift from Dr. William H. Fletcher)
Assay: Rates of phosphorylation of synthetic peptides by PKA
Format: biochemical, bovine
Conditions: PKA; AKRASAA taken as 100%
No end group written: not given here.
What 32P incorporated, % was measured for each of the following?
State just the number; it will be interpreted in %.

If you can, please state the reported 32P incorporated, % value of AKRASEA (AKRASEA-NH2) [synthetic peptide with an amide C-terminal group] . 75

Entry AKRESAA (AKRESAA-NH2) [synthetic peptide with an amide C-terminal group] : reported 32P incorporated, % = ? 38

For the substance shown here, AKRASAA (AKRASAA-NH2) [synthetic peptide with an amide C-terminal group] , give the reported 32P incorporated, %. 100

Return reported 32P incorporated, %; argument: EKRASAA (EKRASAA-NH2) [synthetic peptide with an amide C-terminal group] 4

###

Field: Vmax. Provide a value for each of the substances that follow.
System: γ-PAK
Assay: Kinetic parameters (Km, Vmax) for phosphorylation of synthetic peptides by γ-PAK
Assay type: biochemical, rabbit
Conditions: Table 2, influence of basic amino acids; γ-PAK 1.6 units; ATP 0.2 mM
No end group written: not given here.
Respond with a number, then the unit of measure.

Query (substance): AKRKSAA (AKRKSAA-NH2) [synthetic peptide with an amide C-terminal group] ; field requested: Vmax 2.34 pmol/min

Entry under review: KKRASAA (KKRASAA-NH2) [synthetic peptide with an amide C-terminal group] . Reported Vmax? 1.59 pmol/min

Would you mind telling me what Vmax value was observed for AKRASAA (AKRASAA-NH2) [synthetic peptide with an amide C-terminal group] ? 1.04 pmol/min

Vmax for KKRKSAA [model peptide patterned after the phosphorylation site of nucleocapsid protein NC] ? 1.84 pmol/min

Param item = AARASAA (AARASAA-NH2) [synthetic peptide with an amide C-terminal group] ; retrieve measured Vmax. 2.27 pmol/min

Suppose we examine the substance ARRASAA (ARRASAA-NH2) [synthetic peptide with an amide C-terminal group] ; what Vmax value has been reported? 2.11 pmol/min

###

Test system: γ-PAK
Assay: Rates of phosphorylation of synthetic peptides by γ-PAK
Format: biochemical, rabbit
Settings: Cdc42(GTPγS)-activated γ-PAK; peptide 1 mM; KKRKSAA = 100
No end group written: not given here.
observation-type: rel rate (%)
Kindly format the answer as number then unit.

Which rel rate (%) is reported for this substance? PKRASAA (PKRASAA-NH2) [synthetic peptide with an amide C-terminal group] 184%

What rel rate (%) value was documented for this substance, KKRASAA (KKRASAA-NH2) [synthetic peptide with an amide C-terminal group] ? 181%

Given the substance AAKKSAA (AAKKSAA-NH2) [synthetic peptide with an amide C-terminal group] , what is its reported rel rate (%)? 0%

###

System: γ-PAK
Experiment: Kinetic parameters (Km, Vmax) for phosphorylation of synthetic peptides by γ-PAK
Assay type: biochemical, rabbit
Details: Table 3, influence of acidic amino acids
No end group written: not given here.
observation-type: Vmax (pmol/min)
Entry rule: numbers only, all in pmol/min.

Query: Vmax; subject: AKRESAA (AKRESAA-NH2) [synthetic peptide with an amide C-terminal group] 6.62

What Vmax value was documented for this substance, AKRASEA (AKRASEA-NH2) [synthetic peptide with an amide C-terminal group] ? 2.22

// query Vmax value for entry EKRASAA (EKRASAA-NH2) [synthetic peptide with an amide C-terminal group] 2.48

Query (substance): AKRASAA (AKRASAA-NH2) [synthetic peptide with an amide C-terminal group] ; field requested: Vmax 11.04

###

Answer each item with its documented Vmax.
Tested on: γ-PAK
Assay: Kinetic parameters (Km, Vmax) for phosphorylation of synthetic peptides by γ-PAK
Format: biochemical, rabbit
Details: Table 4, influence of proline and glycine
No end group written: not given here.
Value expressed in pmol/min; do not type the unit.

Requested read-out Vmax, target or system γ-PAK, entry PKRASAA (PKRASAA-NH2) [synthetic peptide with an amide C-terminal group] 1.10

State its Vmax on γ-PAK: AKRGSAA (AKRGSAA-NH2) [synthetic peptide with an amide C-terminal group] 6.44

Hello, I am looking for reported Vmax with γ-PAK for AKRASGA (AKRASGA-NH2) [synthetic peptide with an amide C-terminal group] . Could you help? 3.49

Lab note: need Vmax with γ-PAK for entry AKRASAA (AKRASAA-NH2) [synthetic peptide with an amide C-terminal group] , please look it up. 1.04

###

Test system: γ-PAK
Assay: Kinetic parameters (Km, Vmax) for phosphorylation of synthetic peptides by γ-PAK
Format: biochemical, rabbit
Conditions: Table 2, influence of basic amino acids; γ-PAK 1.6 units; ATP 0.2 mM; read-out: Km
Description: Assays with peptides (I mM) were carried out with γ-PAK (1.6-5.6 units) in 25 μL reaction mixtures incubated for 30 min at 30° C. under conditions described above, except that 0.4 mg/mL of bovine serum albumin was added and the specific activity of ATP was 300-2000 cpm/pmol. […]
No end group written: not given here.
One threshold, 600 µM, splits the recorded Km values: lower ones are rule met, equal or higher ones are rule not met.

Given the entry AARASAA (AARASAA-NH2) [synthetic peptide with an amide C-terminal group] , would its reported Km be below 600 µM? rule not met

Would you kindly verify if Km of KKRASAA (KKRASAA-NH2) [synthetic peptide with an amide C-terminal group] is strictly less than 600 µM? rule met

Threshold test, Km < 600 µM: ARRASAA (ARRASAA-NH2) [synthetic peptide with an amide C-terminal group] rule not met

Please let me know if AKAASAA (AKAASAA-NH2) [synthetic peptide with an amide C-terminal group] shows Km below 600 µM. rule not met

Does this substance meet the criterion Km < 600 µM? AKRKSAA (AKRKSAA-NH2) [synthetic peptide with an amide C-terminal group] rule met

# check: Km < 600 µM for ARKASAA (ARKASAA-NH2) [synthetic peptide with an amide C-terminal group] rule not met

Could you please tell me whether Km recorded for AKRASAA (AKRASAA-NH2) [synthetic peptide with an amide C-terminal group] is less than 600 µM? rule met

###

System: γ-PAK
Test: Rates of phosphorylation of synthetic peptides by γ-PAK
Assay type: biochemical, rabbit
Conditions: Cdc42(GTPγS)-activated γ-PAK; peptide 1 mM; KKRKSAA = 100
Text: A. Materials. γ-PAK was purified from rabbit reticulocytes to apparent homogeneity by chromatography on DEAE-cellulose, SP-Sepharose, protamine agarose, and FPLC on Mono S and Mono Q. Histone I (type IIIS), mixed histone (type IIAS), trypsin (L-1-tosylamido-2-phenylethyl chloromethyl ketone treated), soybean trypsin inhibitor, bovine serum albumin (fatty acid free), and myelin basic protein were purchased from Sigma. Purified histones 2B and 4 were purchased from Boehringer-Mannheim. […]
No end group written: not given here.
Label t when rel rate (%) is at or above 10%; anything below gets f.

Form field: rel rate (%) at least 10%? Entry: KKRKSAA [model peptide patterned after the phosphorylation site of nucleocapsid protein NC] t

Identify whether the reported rel rate (%) of the following substance is 10% or greater: AAKRSAA (AAKRSAA-NH2) [synthetic peptide with an amide C-terminal group] f

In plain terms: is recorded rel rate (%) at least 10% for AKRESAA (AKRESAA-NH2) [synthetic peptide with an amide C-terminal group] ? t

Test whether the substance ARKASAA (ARKASAA-NH2) [synthetic peptide with an amide C-terminal group] records rel rate (%) of 10% or higher. f

Does the substance AKRASEA (AKRASEA-NH2) [synthetic peptide with an amide C-terminal group] have recorded rel rate (%) that is 10% or more? t

Does rel rate (%) meet or surpass 10% for AKRPSAA (AKRPSAA-NH2) [synthetic peptide with an amide C-terminal group] ? t

Identify whether the reported rel rate (%) of the following substance is 10% or greater: AKRASAA (AKRASAA-NH2) [synthetic peptide with an amide C-terminal group] t

API: above_or_equal(metric=rel rate (%), cutoff=10%) for item RKKKSAA (RKKKSAA-NH2) [synthetic peptide with an amide C-terminal group] f
